Target: corticosteroid-binding globulin (CBG), Arctic wolf (Canis lupus, UniProt A0A8I3MUM2)
Construct: native protein in charcoal-stripped serum (Toronto Zoo), not purified
Sequence (A0A8I3MUM2 23-404): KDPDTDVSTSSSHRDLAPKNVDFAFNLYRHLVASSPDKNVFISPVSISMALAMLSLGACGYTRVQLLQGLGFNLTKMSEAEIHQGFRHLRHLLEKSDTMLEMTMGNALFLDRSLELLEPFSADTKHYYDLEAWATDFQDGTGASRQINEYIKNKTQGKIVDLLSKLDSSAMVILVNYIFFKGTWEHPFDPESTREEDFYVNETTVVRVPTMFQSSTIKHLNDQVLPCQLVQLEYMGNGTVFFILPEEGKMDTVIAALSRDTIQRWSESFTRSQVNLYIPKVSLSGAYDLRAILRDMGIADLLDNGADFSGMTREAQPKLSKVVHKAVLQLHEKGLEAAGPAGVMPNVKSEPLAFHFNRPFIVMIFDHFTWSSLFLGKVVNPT
Assay: radioligand saturation binding, dextran-coated charcoal separation
Details: labelled compound ([1,2,6,7-3H]cortisol); 37 °C, ≥4 h, PBS with gelatin; separation at 0 °C; serum 1/50; non-specific binding subtracted; error SEM
ENDPOINT_NAME: pKd
Convention used: pKd is expressed as -log10 of the molar concentration.

## Input For the compound shown here, C[C@]12CCC(=O)C=C1CC[C@@H]1[C@@H]2[C@@H](O)C[C@@]2(C)[C@H]1CC[C@]2(O)C(=O)CO , give the reported pKd.
## Output 9.10

###

Molecular target: corticosteroid-binding globulin (CBG), Arctic ground squirrel (Urocitellus parryii)
Construct: native protein in charcoal-stripped plasma, not purified
Sequence (A0A8D2GQE2 23-403): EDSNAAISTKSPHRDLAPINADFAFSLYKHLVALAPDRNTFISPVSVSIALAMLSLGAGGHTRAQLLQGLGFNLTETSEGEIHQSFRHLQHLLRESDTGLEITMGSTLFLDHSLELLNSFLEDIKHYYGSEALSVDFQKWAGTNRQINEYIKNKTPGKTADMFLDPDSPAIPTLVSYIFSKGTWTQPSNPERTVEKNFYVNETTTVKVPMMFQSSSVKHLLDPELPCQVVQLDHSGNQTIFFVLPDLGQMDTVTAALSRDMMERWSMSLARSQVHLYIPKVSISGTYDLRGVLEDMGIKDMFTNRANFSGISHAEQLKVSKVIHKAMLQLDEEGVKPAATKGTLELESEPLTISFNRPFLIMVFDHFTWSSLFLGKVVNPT
Assay: radioligand saturation binding, dextran-coated charcoal separation
Conditions: labelled compound ([1,2,6,7-3H]cortisol); 37 °C, ≥4 h, PBS with gelatin; separation at 0 °C; plasma 1/50; mean of four runs; error SEM
ENDPOINT_NAME: Kd
I'd appreciate it if you wrote the number followed by its unit.

## Input Field: Kd (corticosteroid-binding globulin (CBG), Arctic ground squirrel (Urocitellus parryii)). Entry: C[C@]12CCC(=O)C=C1CC[C@@H]1[C@@H]2[C@@H](O)C[C@@]2(C)[C@H]1CC[C@]2(O)C(=O)CO [F, cortisol]
## Output 4 nM

###

Biological target: corticosteroid-binding globulin (CBG), Bactrian camel (Camelus bactrianus, UniProt A0A9W3H1V5)
Construct: native protein in charcoal-stripped serum (Toronto Zoo), not purified
Sequence (A0A9W3H1V5 24-405 limits assumed): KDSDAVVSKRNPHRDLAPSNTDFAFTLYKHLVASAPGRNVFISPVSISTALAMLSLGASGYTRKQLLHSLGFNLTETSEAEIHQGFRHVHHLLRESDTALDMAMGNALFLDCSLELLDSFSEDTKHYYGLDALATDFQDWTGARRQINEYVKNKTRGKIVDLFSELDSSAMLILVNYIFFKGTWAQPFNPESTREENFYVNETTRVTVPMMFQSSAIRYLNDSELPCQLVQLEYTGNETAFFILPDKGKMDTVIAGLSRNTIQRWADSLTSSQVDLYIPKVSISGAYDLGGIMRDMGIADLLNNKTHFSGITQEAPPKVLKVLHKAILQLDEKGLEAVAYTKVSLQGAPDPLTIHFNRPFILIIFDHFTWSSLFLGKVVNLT
Test: radioligand saturation binding, dextran-coated charcoal separation
Settings: labelled compound ([1,2,6,7-3H]cortisol); 37 °C, ≥4 h, PBS with gelatin; separation at 0 °C; serum 1/50; non-specific binding subtracted; error SEM
ENDPOINT_NAME: Kd (nM)
Write it as a number; the unit nM goes unstated.

## Input Fill in the blank: the reported Kd of C[C@]12CCC(=O)C=C1CC[C@@H]1[C@@H]2[C@@H](O)C[C@@]2(C)[C@H]1CC[C@]2(O)C(=O)CO [F, cortisol] is ____.
## Output 1

###

Biological target: corticosteroid-binding globulin (CBG), Soay sheep (Ovis aries, UniProt P49920)
Construct: native protein in charcoal-stripped plasma, not purified
Sequence (P49920 23-430): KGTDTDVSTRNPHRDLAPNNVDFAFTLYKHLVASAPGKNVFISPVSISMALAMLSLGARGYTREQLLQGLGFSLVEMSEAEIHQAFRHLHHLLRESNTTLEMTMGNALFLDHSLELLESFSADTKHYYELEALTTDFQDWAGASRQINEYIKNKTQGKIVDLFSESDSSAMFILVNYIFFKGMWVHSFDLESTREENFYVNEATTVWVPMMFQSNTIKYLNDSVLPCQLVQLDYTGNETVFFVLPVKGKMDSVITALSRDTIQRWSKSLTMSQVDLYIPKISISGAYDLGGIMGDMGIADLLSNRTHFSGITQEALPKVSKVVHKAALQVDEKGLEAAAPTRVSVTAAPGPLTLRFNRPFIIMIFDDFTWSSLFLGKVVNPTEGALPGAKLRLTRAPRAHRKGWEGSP
Assay: radioligand saturation binding, dextran-coated charcoal separation
Conditions: labelled compound ([1,2,6,7-3H]cortisol); 37 °C, ≥4 h, PBS with gelatin; separation at 0 °C; plasma 1/50; error SEM
ENDPOINT_NAME: pKd
As a rule, pKd stands for the negative log10 of the concentration, concentration in M.

## Input What value of measured pKd is listed for C[C@]12CCC(=O)C=C1CC[C@@H]1[C@@H]2[C@@H](O)C[C@@]2(C)[C@H]1CC[C@]2(O)C(=O)CO ?
## Output 8.77

###

Molecular target: corticosteroid-binding globulin (CBG), cheetah (Acinonyx jubatus, UniProt A0A6I9ZWD2)
Construct: native protein in charcoal-stripped serum (Toronto Zoo), not purified
Sequence (A0A6I9ZWD2 23-404): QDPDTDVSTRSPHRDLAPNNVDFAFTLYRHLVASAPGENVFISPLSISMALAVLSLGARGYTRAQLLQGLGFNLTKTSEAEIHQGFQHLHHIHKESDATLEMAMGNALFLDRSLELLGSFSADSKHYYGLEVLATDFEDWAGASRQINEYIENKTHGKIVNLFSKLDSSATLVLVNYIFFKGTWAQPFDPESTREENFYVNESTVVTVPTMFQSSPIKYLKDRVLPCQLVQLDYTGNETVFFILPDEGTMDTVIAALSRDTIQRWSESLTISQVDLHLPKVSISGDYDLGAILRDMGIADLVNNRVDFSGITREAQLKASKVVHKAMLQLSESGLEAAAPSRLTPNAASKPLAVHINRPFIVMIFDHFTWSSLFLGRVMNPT
Experiment: radioligand saturation binding, dextran-coated charcoal separation
Settings: labelled compound ([1,2,6,7-3H]cortisol); 37 °C, ≥4 h, PBS with gelatin; separation at 0 °C; serum 1/50; error SEM
ENDPOINT_NAME: pKd
Notebook: values listed as pKd are -log10 of the concentration (mol/L).

## Input Field: pKd (corticosteroid-binding globulin (CBG), cheetah (Acinonyx jubatus, UniProt A0A6I9ZWD2)). Entry: C[C@]12CCC(=O)C=C1CC[C@@H]1[C@@H]2[C@@H](O)C[C@@]2(C)[C@H]1CC[C@]2(O)C(=O)CO
## Output 8.10

Recorded values, source paper PMC4778445.
